Target: Carbonic anhydrase 2 (Homo sapiens, UniProt P00918)
pKi: −log10 of the molar value.
Binary call on pKi: 1.0 from 6 upward, 0.0 beneath that.

Ask: // inclusive: pKi at least 6? input: Nc1nc(-c2ccc(NC(=O)c3ccc(O)c(O)c3)cc2)cn2c(=O)n(-c3ccccc3)nc12
Result: 0.0

Ask: // inclusive: pKi at least 6? input: Nc1nc(-c2cccc(O)c2)cn2c(=O)n(-c3ccccc3)nc12
Result: 0.0

Ask: // inclusive: pKi at least 6? input: Nc1nc(-c2ccc(NC(=O)c3ccc(S(N)(=O)=O)cc3)cc2)cn2c(=O)n(-c3ccccc3)nc12
Result: 1.0

Ask: // inclusive: pKi at least 6? input: Nc1nc(-c2ccc(O)cc2)cn2c(=O)n(-c3ccccc3)nc12
Result: 0.0

Ask: // inclusive: pKi at least 6? input: Nc1nc(-c2ccc(NC(=O)c3ccc(C(=O)O)cc3)cc2)cn2c(=O)n(-c3ccccc3)nc12
Result: 0.0

Ask: // inclusive: pKi at least 6? input: Nc1nc(-c2ccc(NC(=O)CCNCc3ccc(S(N)(=O)=O)cc3)cc2)cn2c(=O)n(-c3ccccc3)nc12
Result: 0.0

Ask: // inclusive: pKi at least 6? input: Nc1nc(-c2ccc(NC(=O)CCNCCc3ccc(S(N)(=O)=O)cc3)cc2)cn2c(=O)n(-c3ccccc3)nc12
Result: 1.0

Ask: // inclusive: pKi at least 6? input: CCOC(=O)CNc1ccc(-c2cn3c(=O)n(-c4ccccc4)nc3c(N)n2)cc1
Result: 0.0

----------
Molecular target: UniProtKB P0DMS8
Sequence (P0DMS8 whole entry): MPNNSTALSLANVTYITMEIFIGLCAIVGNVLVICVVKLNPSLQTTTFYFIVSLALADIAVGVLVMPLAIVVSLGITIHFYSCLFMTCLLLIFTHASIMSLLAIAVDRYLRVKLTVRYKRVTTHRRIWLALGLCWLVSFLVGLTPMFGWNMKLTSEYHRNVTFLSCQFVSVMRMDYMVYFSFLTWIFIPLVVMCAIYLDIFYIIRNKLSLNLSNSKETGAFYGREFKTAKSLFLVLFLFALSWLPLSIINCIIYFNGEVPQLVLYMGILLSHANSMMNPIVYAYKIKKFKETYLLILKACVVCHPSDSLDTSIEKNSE
Would you kindly list Ki for each of these compounds?
Express your answer in µM, writing the number without its unit.

Input Nc1nc(-c2ccc(OCCNC(=O)c3ccc(S(N)(=O)=O)cc3)cc2)cn2c(=O)n(-c3ccccc3)nc12 . Output Ki: 6.65

Input Nc1nc(-c2ccc(S(N)(=O)=O)cc2)cn2c(=O)n(-c3ccccc3)nc12 . Output Ki: 14.8

Input Nc1nc(-c2ccc(NCC(=O)c3ccc(S(N)(=O)=O)cc3)cc2)cn2c(=O)n(-c3ccccc3)nc12 . Output Ki: 6.76

Input COc1ccc(C(=O)Nc2ccc(-c3cn4c(=O)n(-c5ccccc5)nc4c(N)n3)cc2)cc1 . Output Ki: 0.279

Input Nc1nc(-c2ccc(NC(=O)c3ccc(O)c(O)c3)cc2)cn2c(=O)n(-c3ccccc3)nc12 . Output Ki: 1.25

----------
Target: Carbonic anhydrase 1 (Homo sapiens, UniProt P00915)
Sequence (P00915 whole entry): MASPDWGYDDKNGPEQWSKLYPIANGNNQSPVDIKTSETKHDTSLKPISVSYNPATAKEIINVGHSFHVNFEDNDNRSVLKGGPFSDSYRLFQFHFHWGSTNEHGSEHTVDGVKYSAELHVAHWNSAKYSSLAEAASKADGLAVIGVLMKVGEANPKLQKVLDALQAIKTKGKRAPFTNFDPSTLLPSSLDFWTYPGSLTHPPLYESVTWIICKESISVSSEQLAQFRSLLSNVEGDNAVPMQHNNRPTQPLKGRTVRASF
measuredParameter: Ki (µM)
Express your answer in µM, writing the number without its unit.

// assay Carbonic anhydrase 1 (Homo sapiens, UniProt P00915), entry Nc1nc(-c2ccc(NC(=O)CCNCc3ccc(S(N)(=O)=O)cc3)cc2)cn2c(=O)n(-c3ccccc3)nc12 , Ki value = 9

// assay Carbonic anhydrase 1 (Homo sapiens, UniProt P00915), entry Nc1nc(-c2ccc(NC(=O)c3cccc(S(N)(=O)=O)c3)cc2)cn2c(=O)n(-c3ccccc3)nc12 , Ki value = 2.29

// assay Carbonic anhydrase 1 (Homo sapiens, UniProt P00915), entry Nc1nc(-c2ccc(S(N)(=O)=O)cc2)cn2c(=O)n(-c3ccccc3)nc12 , Ki value = 8.02

// assay Carbonic anhydrase 1 (Homo sapiens, UniProt P00915), entry Nc1nc(-c2ccc(NC(=O)CCNCCc3ccc(S(N)(=O)=O)cc3)cc2)cn2c(=O)n(-c3ccccc3)nc12 , Ki value = 8.71

// assay Carbonic anhydrase 1 (Homo sapiens, UniProt P00915), entry Nc1nc(-c2ccc(OCCNCCc3ccc(S(N)(=O)=O)cc3)cc2)cn2c(=O)n(-c3ccccc3)nc12 , Ki value = 0.973

----------
pKi: −log10 of the molar value.
Would you kindly list pKi for each of these molecules?

// assay Carbonic anhydrase 12 (Homo sapiens), entry Nc1nc(-c2ccc(NC(=O)c3ccc(C(=O)O)cc3)cc2)cn2c(=O)n(-c3ccccc3)nc12 , pKi value = < 4.00

// assay Carbonic anhydrase 12 (Homo sapiens), entry Nc1nc(-c2ccc(NC(=O)CCNC(=O)c3ccc(S(N)(=O)=O)cc3)cc2)cn2c(=O)n(-c3ccccc3)nc12 , pKi value = 7.57

// assay Carbonic anhydrase 12 (Homo sapiens), entry Nc1nc(-c2cccc(O)c2)cn2c(=O)n(-c3ccccc3)nc12 , pKi value = < 4.00

// assay Carbonic anhydrase 12 (Homo sapiens), entry COc1ccc(C(=O)Nc2ccc(-c3cn4c(=O)n(-c5ccccc5)nc4c(N)n3)cc2)cc1 , pKi value = < 4.00

----------
pKi: −log10 of the molar value.
measuredParameter: pKi

// assay Carbonic anhydrase 1 (Homo sapiens), entry Nc1nc(-c2cccc(O)c2)cn2c(=O)n(-c3ccccc3)nc12 , pKi value = < 4.00

// assay Carbonic anhydrase 1 (Homo sapiens), entry Nc1nc(-c2ccc(O)cc2)cn2c(=O)n(-c3ccccc3)nc12 , pKi value = < 4.00

// assay Carbonic anhydrase 1 (Homo sapiens), entry COc1ccc(C(=O)Nc2ccc(-c3cn4c(=O)n(-c5ccccc5)nc4c(N)n3)cc2)cc1OC , pKi value = < 4.00

// assay Carbonic anhydrase 1 (Homo sapiens), entry Nc1nc(-c2ccc(NC(=O)c3ccc(C(=O)NO)cc3)cc2)cn2c(=O)n(-c3ccccc3)nc12 , pKi value = < 4.00
